Experiment: Example 4: dose response of FKBP constructs 160-255, Ec50, Ec90 and fold change (raw and normalized to mCherry)
Type: cell-based
Conditions: fold change during initial analysis

molecule	FC (fold change)
FKBP-164 (protein, Description of sequence: Construct Name: FKBP-164; Mutation(s): Q72R Q84E A117W DRD M54A P118V V85R) HCPIKSRKGDVLHAHYTGKLEDGTEFDSSLPRNQPFVFSLGTGERIKGWDQGLLGMCEGEKRKLVIPSELGYGERGWVPKIPGGATLVFEVELLKIER	42.7
FKBP-224 (protein, Description of sequence: Construct Name: FKBP-224; Mutation(s): Q72R Q84E A117W DRD P43R) HCRIKSRKGDVLHMHYTGKLEDGTEFDSSLPRNQPFVFSLGTGEVIKGWDQGLLGMCEGEKRKLVIPSELGYGERGWPPKIPGGATLVFEVELLKIER	5.2
FKBP-228: combinatorial FKBP13 mutant construct of Table 10 (protein, Description of sequence: Construct Name: FKBP-228; Mutation(s): Q72R Q84E A117W V85R DRD E137R) HCPIKSRKGDVLHMHYTGKLEDGTEFDSSLPRNQPFVFSLGTGERIKGWDQGLLGMCEGEKRKLVIPSELGYGERGWPPKIPGGATLVFEVELLKIRR	55.1

Where do these numbers come from? They come from patent US20250186614A1.
